tgt: UniProt:P05771
run description: Inhibitory concentration against recombinant human Protein kinase C beta 1 isozyme
Reported IC50 values are given for each entry in this list.

| compound | unit | IC50 |
| --- | --- | --- |
| O=C(N[C@@H]1CSCCC[C@H]1OC(=O)c1cc(O)c(C(=O)c2c(O)cccc2C(=O)O)c(O)c1)c1ccc(O)cc1 | nM | 3800 |
| O=C(N[C@@H]1CN2CCC(CC2)[C@H]1OC(=O)c1cc(O)c(C(=O)c2c(O)cccc2C(=O)O)c(O)c1)c1ccc(O)cc1 | nM | 26 |
| N[C@@H]1C[C@@H](NC(=O)c2ccc(O)cc2)[C@H](OC(=O)c2cc(O)c(C(=O)c3c(O)cccc3C(=O)O)c(O)c2)C1 | nM | 4 |
| O=C(N[C@@H]1C[C@@H](CO)C[C@H]1OC(=O)c1cc(O)c(C(=O)c2c(O)cccc2C(=O)O)c(O)c1)c1ccc(O)cc1 | nM | 60 |
| O=C(N[C@@H]1C[C@H](CO)C[C@H]1OC(=O)c1cc(O)c(C(=O)c2c(O)cccc2C(=O)O)c(O)c1)c1ccc(O)cc1 | nM | 4 |
| NC[C@H]1C[C@@H](NC(=O)c2ccc(O)cc2)[C@H](OC(=O)c2cc(O)c(C(=O)c3c(O)cccc3C(=O)O)c(O)c2)C1 | nM | 4 |
| O=C(N[C@@H]1CC(O)C[C@H]1OC(=O)c1cc(O)c(C(=O)c2c(O)cccc2C(=O)O)c(O)c1)c1ccc(O)cc1 (some centres not stated) | nM | 20 |

====

tgt: cAMP-dependent protein kinase catalytic subunit alpha (Homo sapiens, UniProt P17612)
run description: Inhibitory concentration against recombinant human cAMP-dependent Protein kinase A
Reported IC50 values are given for each entry in this list.

| molecule | unit | qualifying sign | IC50 |
| --- | --- | --- | --- |
| CC(=O)N1C[C@@H](NC(=O)c2ccc(O)cc2)[C@H](OC(=O)c2cc(O)c(C(=O)c3c(O)cccc3C(=O)O)c(O)c2)C1 | µM | = | 3.6 |
| O=C(N[C@@H]1CCCCC[C@H]1OC(=O)c1cc(O)c(C(=O)c2c(O)cccc2C(=O)O)c(O)c1)c1ccc(O)cc1 | µM | = | 1.4 |
| O=C(N[C@@H]1C2CCC(C2)[C@H]1OC(=O)c1cc(O)c(C(=O)c2c(O)cccc2C(=O)O)c(O)c1)c1ccc(O)cc1 (some centres undefined) | µM | = | 1.9 |
| O=C(N[C@@H]1CNCC[C@H]1OC(=O)c1cc(O)c(C(=O)c2c(O)cccc2C(=O)O)c(O)c1)c1ccc(O)cc1 | µM | = | 0.35 |
| COC(=O)N1C[C@@H](NC(=O)c2ccc(O)cc2)[C@H](OC(=O)c2cc(O)c(C(=O)c3c(O)cccc3C(=O)O)c(O)c2)C1 | µM | = | 13 |
| NC[C@@H]1C[C@@H](NC(=O)c2ccc(O)cc2)[C@H](OC(=O)c2cc(O)c(C(=O)c3c(O)cccc3C(=O)O)c(O)c2)C1 | µM | = | 0.09 |
| CS(=O)(=O)N1C[C@@H](NC(=O)c2ccc(O)cc2)[C@H](OC(=O)c2cc(O)c(C(=O)c3c(O)cccc3C(=O)O)c(O)c2)C1 | µM | = | 4.5 |
| O=C(N[C@@H]1CN2CCC(CC2)[C@H]1OC(=O)c1cc(O)c(C(=O)c2c(O)cccc2C(=O)O)c(O)c1)c1ccc(O)cc1 | µM | = | 1.7 |
| CN1C2CCC1C(NC(=O)c1ccc(O)cc1)C(OC(=O)c1cc(O)c(C(=O)c3c(O)cccc3C(=O)O)c(O)c1)C2 (centres undefined) | µM | > | 50 |

====

tgt: Protein kinase C beta type (Homo sapiens, UniProt P05771)
Sequence (P05771 whole entry): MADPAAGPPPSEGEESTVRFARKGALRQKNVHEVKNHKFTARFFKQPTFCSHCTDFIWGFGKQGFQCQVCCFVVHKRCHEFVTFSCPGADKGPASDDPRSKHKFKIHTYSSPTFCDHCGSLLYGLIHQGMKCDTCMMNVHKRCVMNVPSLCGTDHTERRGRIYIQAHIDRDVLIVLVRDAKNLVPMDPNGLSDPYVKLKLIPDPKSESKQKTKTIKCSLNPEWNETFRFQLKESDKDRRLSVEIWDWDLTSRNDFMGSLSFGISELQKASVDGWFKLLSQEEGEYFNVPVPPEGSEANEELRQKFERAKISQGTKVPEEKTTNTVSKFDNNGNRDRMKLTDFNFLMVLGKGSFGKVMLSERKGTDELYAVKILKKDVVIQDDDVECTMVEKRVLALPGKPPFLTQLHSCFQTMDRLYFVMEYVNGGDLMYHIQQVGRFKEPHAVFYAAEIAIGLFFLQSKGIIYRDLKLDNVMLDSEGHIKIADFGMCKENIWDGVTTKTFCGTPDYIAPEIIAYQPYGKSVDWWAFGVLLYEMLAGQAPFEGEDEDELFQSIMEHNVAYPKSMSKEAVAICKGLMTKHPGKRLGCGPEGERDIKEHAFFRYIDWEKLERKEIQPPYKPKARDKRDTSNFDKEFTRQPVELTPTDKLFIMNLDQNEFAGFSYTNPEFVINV
run description: Inhibitory concentration against recombinant human Protein kinase C beta 1 isozyme

| chemical structure | tgt | IC50 |
| --- | --- | --- |
| O=C(N[C@@H]1C[C@@H](O)C[C@H]1OC(=O)c1cc(O)c(C(=O)c2c(O)cccc2C(=O)O)c(O)c1)c1ccc(O)cc1 | Protein kinase C beta type (Homo sapiens, UniProt P05771) | 30 nM |
| CC(=O)N1C[C@@H](NC(=O)c2ccc(O)cc2)[C@H](OC(=O)c2cc(O)c(C(=O)c3c(O)cccc3C(=O)O)c(O)c2)C1 | Protein kinase C beta type (Homo sapiens, UniProt P05771) | 710 nM |
| O=C(N[C@H]1CNCCC[C@@H]1OC(=O)c1cc(O)c(C(=O)c2c(O)cccc2C(=O)O)c(O)c1)c1ccc(O)cc1 | Protein kinase C beta type (Homo sapiens, UniProt P05771) | 500 nM |
| CC(C)N1C[C@@H](NC(=O)c2ccc(O)cc2)[C@H](OC(=O)c2cc(O)c(C(=O)c3c(O)cccc3C(=O)O)c(O)c2)C1 | Protein kinase C beta type (Homo sapiens, UniProt P05771) | 60 nM |

====

tgt: Protein kinase C alpha type (Homo sapiens, UniProt P17252)
run description: Inhibitory concentration against recombinant human Protein kinase C alpha isozyme
pIC50: −log10 of the molar value.
Output 1 for pIC50 not less than 7; output -1 otherwise.

| chemical structure | label value |
| --- | --- |
| O=C(N[C@@H]1C[C@H](CO)C[C@H]1OC(=O)c1cc(O)c(C(=O)c2c(O)cccc2C(=O)O)c(O)c1)c1ccc(O)cc1 | 1 |
| CNC(=O)N1C[C@@H](NC(=O)c2ccc(O)cc2)[C@H](OC(=O)c2cc(O)c(C(=O)c3c(O)cccc3C(=O)O)c(O)c2)C1 | -1 |
| O=C(N[C@@H]1COCCC[C@H]1OC(=O)c1cc(O)c(C(=O)c2c(O)cccc2C(=O)O)c(O)c1)c1ccc(O)cc1 | -1 |
| CC(C)N1C[C@@H](NC(=O)c2ccc(O)cc2)[C@H](OC(=O)c2cc(O)c(C(=O)c3c(O)cccc3C(=O)O)c(O)c2)C1 | -1 |
| NC[C@@H]1C[C@@H](NC(=O)c2ccc(O)cc2)[C@H](OC(=O)c2cc(O)c(C(=O)c3c(O)cccc3C(=O)O)c(O)c2)C1 | 1 |
| O=C(N[C@@H]1CS(=O)(=O)CCC[C@H]1OC(=O)c1cc(O)c(C(=O)c2c(O)cccc2C(=O)O)c(O)c1)c1ccc(O)cc1 | -1 |

====

Reported IC50 values are given for each entry in this list.
tgt: Protein kinase C beta type (Homo sapiens)
run description: Inhibitory concentration against recombinant human Protein kinase C beta 2 isozyme

| compound | IC50 (nM) |
| --- | --- |
| O=C(N[C@@H]1COCCC[C@H]1OC(=O)c1cc(O)c(C(=O)c2c(O)cccc2C(=O)O)c(O)c1)c1ccc(O)cc1 | 3300 |
| CS(=O)(=O)N1C[C@@H](NC(=O)c2ccc(O)cc2)[C@H](OC(=O)c2cc(O)c(C(=O)c3c(O)cccc3C(=O)O)c(O)c2)C1 | 350 |
| O=C(N[C@@H]1CSCCC[C@H]1OC(=O)c1cc(O)c(C(=O)c2c(O)cccc2C(=O)O)c(O)c1)c1ccc(O)cc1 | 2400 |
| O=C(N[C@H]1CNCCC[C@@H]1OC(=O)c1cc(O)c(C(=O)c2c(O)cccc2C(=O)O)c(O)c1)c1ccc(O)cc1 | 880 |
| CC1(C)C2CCC1(C)[C@@H](OC(=O)c1cc(O)c(C(=O)c3c(O)cccc3C(=O)O)c(O)c1)[C@@H]2NC(=O)c1ccc(O)cc1 (some centres not stated) | 80 |
| O=C(N[C@@H]1CS(=O)(=O)CCC[C@H]1OC(=O)c1cc(O)c(C(=O)c2c(O)cccc2C(=O)O)c(O)c1)c1ccc(O)cc1 | 3600 |
| O=C(N[C@@H]1CC(O)C[C@H]1OC(=O)c1cc(O)c(C(=O)c2c(O)cccc2C(=O)O)c(O)c1)c1ccc(O)cc1 (some centres not stated) | 10 |

====

Reported pIC50 values are given for each entry in this list.
tgt: Protein kinase C beta type (Homo sapiens)
run description: Inhibitory concentration against recombinant human Protein kinase C beta 1 isozyme
pIC50: −log10 of the molar value.

| chemical structure | tgt | pIC50 |
| --- | --- | --- |
| O=C(N[C@@H]1COCCC[C@H]1OC(=O)c1cc(O)c(C(=O)c2c(O)cccc2C(=O)O)c(O)c1)c1ccc(O)cc1 | Protein kinase C beta type (Homo sapiens) | 5.60 |
| CS(=O)(=O)N1C[C@@H](NC(=O)c2ccc(O)cc2)[C@H](OC(=O)c2cc(O)c(C(=O)c3c(O)cccc3C(=O)O)c(O)c2)C1 | Protein kinase C beta type (Homo sapiens) | 6.48 |
| NC[C@@H]1C[C@@H](NC(=O)c2ccc(O)cc2)[C@H](OC(=O)c2cc(O)c(C(=O)c3c(O)cccc3C(=O)O)c(O)c2)C1 | Protein kinase C beta type (Homo sapiens) | 8.30 |
| CNC(=O)N1C[C@@H](NC(=O)c2ccc(O)cc2)[C@H](OC(=O)c2cc(O)c(C(=O)c3c(O)cccc3C(=O)O)c(O)c2)C1 | Protein kinase C beta type (Homo sapiens) | 6.17 |
